Measured GFP response relative to DMSO, listed per entry for reference.
EXPERIMENT_DESCRIPTION: LAP4-GFP expression modulators in yeast, confirmation, cell-based, cherry picks, flow cytometry, mother/daughter gates (AID 2271);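 further: ratio of sample to DMSO plate mean so 100% equals DMSO level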
RUN_PARAMETERS: S. cerevisiae LAP4-GFP strain, 3 h, at 10 µM, active compounds read high, 100 means same as DMSO control
Form entry: value (%) — number only.

// known answers, use as guide
COc1ccc(N2C(=O)C(Cl)=C(Nc3ccccc3O)C2=O)cc1 | 102
Cc1cc(OCC(=O)Nc2ccc(S(=O)(=O)N3CCN(C)CC3)cc2)ccc1Br | 97.7
O=C1c2cccc3cccc(c23)C(=O)N1c1nccs1 | 116
CC(=O)Oc1oc(-c2ccccc2)nc1C=Nc1ccc(N(C)C)cc1 | 95
Cc1c(C)c2ccc(OCC(=O)NCCCn3ccnc3)cc2oc1=O | 96.7

Now turn to the next compound.
# input Reported GFP response relative to DMSO, compound Cc1cccn2c(=O)c(/C=C(\C#N)C(=O)NCc3ccco3)c(N3CCCCCC3)nc12 : ____
# output 96.2

###

Measured inhibition, listed per entry for reference.
TARGET_ENTITY: ATP-binding cassette sub-family B member 6 (Homo sapiens) (UniProt Q9NP58)
Sequence (Q9NP58 whole entry, looked up): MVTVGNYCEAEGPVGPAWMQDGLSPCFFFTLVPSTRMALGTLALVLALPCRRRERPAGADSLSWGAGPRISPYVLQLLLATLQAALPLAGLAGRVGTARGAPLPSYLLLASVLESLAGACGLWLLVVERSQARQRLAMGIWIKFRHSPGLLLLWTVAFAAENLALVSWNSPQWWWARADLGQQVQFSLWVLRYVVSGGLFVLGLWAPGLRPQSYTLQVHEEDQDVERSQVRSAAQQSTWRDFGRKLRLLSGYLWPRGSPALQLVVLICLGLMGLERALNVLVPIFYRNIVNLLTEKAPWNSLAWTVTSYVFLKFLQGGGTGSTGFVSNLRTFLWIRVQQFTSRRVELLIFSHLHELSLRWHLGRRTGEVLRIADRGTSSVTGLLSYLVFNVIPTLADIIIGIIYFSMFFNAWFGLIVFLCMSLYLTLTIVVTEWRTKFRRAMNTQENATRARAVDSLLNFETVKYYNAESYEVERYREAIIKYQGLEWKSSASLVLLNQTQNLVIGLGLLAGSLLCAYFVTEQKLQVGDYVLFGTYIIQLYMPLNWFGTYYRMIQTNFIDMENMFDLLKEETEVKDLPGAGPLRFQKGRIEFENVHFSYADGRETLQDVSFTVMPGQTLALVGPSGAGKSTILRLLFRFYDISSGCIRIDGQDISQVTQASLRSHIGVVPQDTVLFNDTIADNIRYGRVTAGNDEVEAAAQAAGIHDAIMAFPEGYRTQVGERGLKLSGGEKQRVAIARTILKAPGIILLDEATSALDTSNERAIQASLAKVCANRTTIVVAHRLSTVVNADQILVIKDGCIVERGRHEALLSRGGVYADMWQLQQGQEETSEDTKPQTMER
EXPERIMENT_DESCRIPTION: ABCB6 transporter inhibitors, pilot screen, K562-ABCB6 cells, flow cytometry, validation set (AID 588550);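 further: 0% = DMSO wells and 100% = benzethonium chloride 70 µM positive control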
RUN_PARAMETERS: K562-ABCB6 porphyrin accumulation, 1 h, at 10 µM, active compounds read high
Form entry: value (%) — number only.

// known answers, use as guide
CC(C)COc1ccc(Cc2cnc(N)nc2N)cc1 | 0
COc1cccc(OCc2cc(C3Nc4ccccc4C(=O)N3Cc3ccco3)ccc2OC)c1 (stereo not given) | 3

# input Reported inhibition, molecule COc1cccc2c1C(=O)O/C2=C/c1ccc2c(c1)OCO2 : ____
# output 8

# input Reported inhibition, molecule COC(=O)CN1CC(=O)N(c2ccccc2)C1=S : ____
# output -19

# input Reported inhibition, molecule CN(C)CCC(c1ccc(Br)cc1)c1ccccn1 (stereo not given) : ____
# output 12

###

EXPERIMENT_DESCRIPTION: RPL19A-GFP modulators, yeast TOR pathway, confirmation, cell-based, S. cerevisiae, flow cytometry, cherry picks, mother/daughter gates (AID 2270)
RUN_PARAMETERS: S. cerevisiae RPL19A-GFP strain, 3 h, at 10 µM, active compounds read low, 100 = same GFP as DMSO wells
Measured GFP response vs DMSO, listed per entry for reference.
Form entry: value (%) — number only.

// known answers, use as guide
c1ccc(CSc2ccc(-c3ccccn3)nn2)cc1 | 101
COc1cccc(N=Nc2ccc3cccnc3c2O)c1 | 99.8
N/C(=N\OC(=O)c1ccc(Cl)cc1Cl)c1ccccc1 | 98.4

Now turn to the next compound.
# input Reported GFP response vs DMSO, compound CCCc1[nH]nc2c1C(c1cc(OC)cc(OC)c1)C(C#N)=C(N)O2 (centres undefined) : ____
# output 101

###

EXPERIMENT_DESCRIPTION: superoxide lowering in aged yeast cells, pilot screen, validation compound set (AID 2706);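 further: yeast exposed to compound for one week at 30 degrees C before staining; 100% = mean of all compound wells on the same plate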
RUN_PARAMETERS: S. cerevisiae aging, superoxide DHE fluorescence; at 10 µM, active compounds read low
VALUE_TYPE: superoxide response (% of plate) (%)
Form entry: value (%) — number only.

CC(C)[N+]1(C)[C@@H]2CC[C@H]1CC(OC(=O)C(CO)c1ccccc1)C2 (stereo not given in full) | 94.6
O=C(c1ccc(F)cc1)[C@@H]1[C@@H](C(=O)c2ccccc2)[C@@]2(C(=O)Nc3ccccc32)[C@H]2c3ccccc3C=CN12 | 121
COc1ccccc1C(=O)N=C1NC(=O)CC2C(=O)NCCN12 (stereo not given) | 100
COc1ccc(C(=O)/C=C/c2ccc(OC(=O)c3cc(OC)c(OC)c(OC)c3)cc2)cc1 | 96.7

Now turn to the next molecule.
# input Reported superoxide response (% of plate), molecule CN(C)c1ccc(O)c2c1CC1CC3[C@@H](N(C)C)C(=O)C(C(N)=O)=C(O)[C@]3(O)C(=O)C1=C2O (stereo not given in full) : ____
# output 99.5
